Cited source: patent US20240368139A1

- target_or_system: human EHMT2 913-1193 (Homo sapiens, UniProt Q96KQ7)
- Sequence (Q96KQ7 913-1193): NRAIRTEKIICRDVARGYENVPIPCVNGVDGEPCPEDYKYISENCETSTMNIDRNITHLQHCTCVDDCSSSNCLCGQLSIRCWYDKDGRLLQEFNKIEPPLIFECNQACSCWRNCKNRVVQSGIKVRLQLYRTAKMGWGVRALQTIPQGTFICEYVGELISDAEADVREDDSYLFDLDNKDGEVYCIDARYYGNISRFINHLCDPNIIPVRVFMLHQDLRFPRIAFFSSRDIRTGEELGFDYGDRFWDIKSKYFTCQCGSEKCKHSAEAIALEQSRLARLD
- assay_comment: EHMT2 enzyme assay on histone peptide substrate (3H-SAM SPA)
- condition: EHMT2 IC50, recombinant human EHMT2 913-1193, histone peptide substrate
experimental_readout: IC50

Solved cases (5 shown):
# compound, IC50
measured = [
    ("CNc1cc(C)nc(Nc2cc3c(c(C4=CCNCCC4)c2F)OCO3)n1", "< 100 nM"),
    ("CNc1cc(C)nc(Nc2cc3c(c(C4=CCN(C)CCC4)c2)OCC3)c1", "100 to 500 nM"),
    ("CNc1cc(C)nc(Nc2cc3c(c(C4=CCC(N)CC4)c2)OCCC3)n1 (centres unmarked)", "> 2000 nM"),
    ("CNc1cc(C)nc(Nc2cc3c(c(C4C[C@H]5CNC[C@H]5C4)c2F)OCC3)n1 (some centres unmarked)", "500 to 2000 nM"),
    ("CNc1cc(C)nc(Nc2cc3c(c(C4=CCNCCC4)c2F)OCC3)c1", "< 100 nM"),
]

Record CNc1cc(C)nc(Nc2cc3c(c(C4=CCNCC(OC)C4)c2F)OCC3)n1 (single isomer, unassigned) [Compound 366-a] / human EHMT2 913-1193 (Homo sapiens, UniProt Q96KQ7), IC50 recorded as > 2000 nM

Record `CNc1nc(Nc2cc3c(c(C4=CCNCCC4)c2)OCC3)nc(C)c1F` / human EHMT2 913-1193 (Homo sapiens, UniProt Q96KQ7), IC50 recorded as 100 to 500 nM

Record CNc1cc(C)nc(Nc2cc3c(c(C4=CCNC(C)CC4)c2F)OCC3)n1 (single isomer, unassigned) [Compound 183] / human EHMT2 913-1193 (Homo sapiens, UniProt Q96KQ7), IC50 recorded as < 100 nM

* * *

- target_or_system: human EHMT1 982-1266 (Homo sapiens, UniProt Q9H9B1)
- Sequence (Q9H9B1 982-1266): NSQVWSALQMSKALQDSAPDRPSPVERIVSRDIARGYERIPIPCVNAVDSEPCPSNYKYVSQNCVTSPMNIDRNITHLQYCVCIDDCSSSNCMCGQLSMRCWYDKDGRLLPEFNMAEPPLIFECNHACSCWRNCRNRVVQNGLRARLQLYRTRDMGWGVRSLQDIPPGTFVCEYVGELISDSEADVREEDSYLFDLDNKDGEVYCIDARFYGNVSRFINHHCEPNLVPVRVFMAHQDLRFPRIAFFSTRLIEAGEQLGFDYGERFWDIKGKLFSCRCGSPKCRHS
- assay_comment: EHMT1 enzyme assay on histone peptide substrate (3H-SAM SPA)
- condition: EHMT1 IC50, recombinant human EHMT1 982-1266, histone peptide substrate
pIC50: −log10 of the molar value.
experimental_readout: pIC50

Solved cases (3 shown):
# compound, pIC50
measured = [
    ("[2H]C([2H])([2H])Nc1cc(C)nc(Nc2cc3c(c(C4=CCNCCC4)c2)OCCO3)n1 [Compound 283]", "> 7.00"),
    ("CNc1cc(C)nc(Nc2cc(OCCCN3CCCC3)c3c(c2)OCO3)c1 [Compound 147]", "5.70 to 6.30"),
    ("CNc1cc(C)nc(Nc2cc3c(c(C4=CCN(C)CCC4)c2Cl)OCCC3)n1 [Compound 176]", "> 7.00"),
]

Documented pIC50 of CNc1cc(C)nc(Nc2cc3c(c(C4=CCNCCC4)c2)OCCO3)n1 [Compound 130] : > 7.00
